system: TA[Q] (DNA, G4) TAGGGTTAGGGTTAGGGTTAGGG; assay: fluorescence titration; conditions: K+ 0.1 M; 25 mM Tris-HCl pH 7.5, 1 mM EDTA, 18 °C; 0.5 μM compound
measure: K11

Query: Sample COc1ccc2cc3[n+](cc2c1OC)CCc1cc2c(cc1-3)OCO2 — what was its K11?
Response: (4.1 ± 0.4) × 10^5 M^-1

Query: // same read-out, input: COc1cc2c(cc1OC)-c1cc3ccc(OC)c(OC)c3c[n+]1CC2
Response: (4.1 ± 0.4) × 10^5 M^-1
